Reported pEC50 values for the following binders.
Target: T1, DcR3 (UniProt O95407 30-300, limits assumed)
T1 construct: the construct is not described; also called decoy receptor DcR3; TNFRSF6B
T1 sequence (looked up): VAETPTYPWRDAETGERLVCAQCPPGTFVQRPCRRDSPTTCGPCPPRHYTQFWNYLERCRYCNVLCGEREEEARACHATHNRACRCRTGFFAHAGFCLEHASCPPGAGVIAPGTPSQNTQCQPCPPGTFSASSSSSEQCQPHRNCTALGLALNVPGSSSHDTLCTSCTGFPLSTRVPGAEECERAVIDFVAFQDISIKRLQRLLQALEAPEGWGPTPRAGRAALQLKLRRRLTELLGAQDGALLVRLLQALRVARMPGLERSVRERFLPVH
Assay: ELISA, DcR3
When answering, recall that pEC50 equals minus log10 of the concentration in mol/L, and write that number alone.

Sample answers from the record:
{"Binder": "TL1W42 (His-TEV-TL1A F114A) (ligand, also called TL1W42 (F114A)) HHHHHHENLYFQGLKGQEFAPSHQQVYAPLRADGDKPRAHLTVVRQTPTQHFKNQAPALHWEHELGLAFTKNRMNYTNKFLLIPESGDYFIYSQVTFRGMTSECSEIRQAGRPNKPDSITVVITKVTDSYPEPTQLLMGTKSVCEVGSNWFQPIYLGAMFSLQEGDKLMVNVSDISLVDYTKEDKTFFGAFLL", "Measured Property": "pEC50", "Test Result": 7.94}
{"Binder": "TL1W96 (His-TEV-TL1A R170E) (ligand, also called TL1W96 (R170E)) HHHHHHENLYFQGLKGQEFAPSHQQVYAPLRADGDKPRAHLTVVRQTPTQHFKNQFPALHWEHELGLAFTKNRMNYTNKFLLIPESGDYFIYSQVTFRGMTSECSEIRQAGEPNKPDSITVVITKVTDSYPEPTQLLMGTKSVCEVGSNWFQPIYLGAMFSLQEGDKLMVNVSDISLVDYTKEDKTFFGAFLL", "Measured Property": "pEC50", "Test Result": 7.79}
{"Binder": "TL1W89 (His-TEV-TL1A R156Y) (ligand, also called TL1W89 (R156Y)) HHHHHHENLYFQGLKGQEFAPSHQQVYAPLRADGDKPRAHLTVVRQTPTQHFKNQFPALHWEHELGLAFTKNRMNYTNKFLLIPESGDYFIYSQVTFYGMTSECSEIRQAGRPNKPDSITVVITKVTDSYPEPTQLLMGTKSVCEVGSNWFQPIYLGAMFSLQEGDKLMVNVSDISLVDYTKEDKTFFGAFLL", "Measured Property": "pEC50", "Test Result": 8.10}
{"Binder": "TL1W115 (His-TEV-TL1A T192F) (ligand, also called TL1W115 (T192F)) HHHHHHENLYFQGLKGQEFAPSHQQVYAPLRADGDKPRAHLTVVRQTPTQHFKNQFPALHWEHELGLAFTKNRMNYTNKFLLIPESGDYFIYSQVTFRGMTSECSEIRQAGRPNKPDSITVVITKVTDSYPEPFQLLMGTKSVCEVGSNWFQPIYLGAMFSLQEGDKLMVNVSDISLVDYTKEDKTFFGAFLL", "Measured Property": "pEC50", "Test Result": 7.97}

Please give the documented pEC50 of TL1W33 (His-TEV-hTL1A 72-251 R103A) (ligand, also called TL1W33 (R103A)) HHHHHHENLYFQGLKGQEFAPSHQQVYAPLRADGDKPRAHLTVVAQTPTQHFKNQFPALHWEHELGLAFTKNRMNYTNKFLLIPESGDYFIYSQVTFRGMTSECSEIRQAGRPNKPDSITVVITKVTDSYPEPTQLLMGTKSVCEVGSNWFQPIYLGAMFSLQEGDKLMVNVSDISLVDYTKEDKTFFGAFLL
8.48

Please give the documented pEC50 of TL1W129 (His-TEV-TL1A Y238K) (ligand, also called TL1W129 (Y238K)) HHHHHHENLYFQGLKGQEFAPSHQQVYAPLRADGDKPRAHLTVVRQTPTQHFKNQFPALHWEHELGLAFTKNRMNYTNKFLLIPESGDYFIYSQVTFRGMTSECSEIRQAGRPNKPDSITVVITKVTDSYPEPTQLLMGTKSVCEVGSNWFQPIYLGAMFSLQEGDKLMVNVSDISLVDKTKEDKTFFGAFLL
8.05

Please give the documented pEC50 of TL1W107 (His-TEV-TL1A D186Y) (ligand, also called TL1W107 (D186Y)) HHHHHHENLYFQGLKGQEFAPSHQQVYAPLRADGDKPRAHLTVVRQTPTQHFKNQFPALHWEHELGLAFTKNRMNYTNKFLLIPESGDYFIYSQVTFRGMTSECSEIRQAGRPNKPDSITVVITKVTYSYPEPTQLLMGTKSVCEVGSNWFQPIYLGAMFSLQEGDKLMVNVSDISLVDYTKEDKTFFGAFLL
8.21

Please give the documented pEC50 of TL1W104 (His-TEV-TL1A T185L) (ligand, also called TL1W104 (T185L)) HHHHHHENLYFQGLKGQEFAPSHQQVYAPLRADGDKPRAHLTVVRQTPTQHFKNQFPALHWEHELGLAFTKNRMNYTNKFLLIPESGDYFIYSQVTFRGMTSECSEIRQAGRPNKPDSITVVITKVLDSYPEPTQLLMGTKSVCEVGSNWFQPIYLGAMFSLQEGDKLMVNVSDISLVDYTKEDKTFFGAFLL
7.71

Please give the documented pEC50 of TL1W139 (His-TEV-TL1A E241Q) (ligand, also called TL1W139 (E241Q)) HHHHHHENLYFQGLKGQEFAPSHQQVYAPLRADGDKPRAHLTVVRQTPTQHFKNQFPALHWEHELGLAFTKNRMNYTNKFLLIPESGDYFIYSQVTFRGMTSECSEIRQAGRPNKPDSITVVITKVTDSYPEPTQLLMGTKSVCEVGSNWFQPIYLGAMFSLQEGDKLMVNVSDISLVDYTKQDKTFFGAFLL
7.76

Please give the documented pEC50 of TL1W121 (His-TEV-TL1A S206E) (ligand, also called TL1W121 (S206E)) HHHHHHENLYFQGLKGQEFAPSHQQVYAPLRADGDKPRAHLTVVRQTPTQHFKNQFPALHWEHELGLAFTKNRMNYTNKFLLIPESGDYFIYSQVTFRGMTSECSEIRQAGRPNKPDSITVVITKVTDSYPEPTQLLMGTKSVCEVGENWFQPIYLGAMFSLQEGDKLMVNVSDISLVDYTKEDKTFFGAFLL
7.76

Please give the documented pEC50 of TL1W98 (His-TEV-TL1A K173R) (ligand, also called TL1W98 (K173R)) HHHHHHENLYFQGLKGQEFAPSHQQVYAPLRADGDKPRAHLTVVRQTPTQHFKNQFPALHWEHELGLAFTKNRMNYTNKFLLIPESGDYFIYSQVTFRGMTSECSEIRQAGRPNRPDSITVVITKVTDSYPEPTQLLMGTKSVCEVGSNWFQPIYLGAMFSLQEGDKLMVNVSDISLVDYTKEDKTFFGAFLL
7.56

All values here come from patent US20220056104A1.
